# Assay: Pharmacokinetics of FTD and TPI in plasma of solid cancer patients given FTD/TPI combination drug, by renal function cohort
# Type: in vivo, human
# Experimental Setup: human, plasma, po, 35 mg/m2, Day 12; Cohort 0: normal renal function; 35 mg/m^2 per once as FTD, oral, twice a day; plasma; mean
Metric Name: Cmax (ng/mL)

(I) Cl.N=C1CCCN1Cc1[nH]c(=O)[nH]c(=O)c1Cl [TPI]
(II) O=c1[nH]c(=O)n([C@H]2C[C@H](O)[C@@H](CO)O2)cc1C(F)(F)F [FTD, α,α,α-trifluorothymidine]
Task: Hi there! Just curious which has the higher Cmax between I and II . Answer with the label corresponding to your selection.
Output: II
(II: 5240 ng/mL, I: 48.8 ng/mL)
